Target: UniProt P41149
Sequence (P41149 whole entry): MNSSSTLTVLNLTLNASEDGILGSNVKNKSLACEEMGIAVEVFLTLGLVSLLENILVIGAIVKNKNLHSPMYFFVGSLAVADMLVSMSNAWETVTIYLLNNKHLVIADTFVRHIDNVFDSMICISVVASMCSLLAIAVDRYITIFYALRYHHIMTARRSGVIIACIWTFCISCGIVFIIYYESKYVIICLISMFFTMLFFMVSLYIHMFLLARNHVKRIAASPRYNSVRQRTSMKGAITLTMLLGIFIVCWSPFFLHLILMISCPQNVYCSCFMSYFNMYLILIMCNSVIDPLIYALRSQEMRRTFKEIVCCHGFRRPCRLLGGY
Experiment: AlphaScreen cAMP agonist assay, HEK293 cells stably expressing mMC5R
Details: agonist potency ratio
Square brackets hold non-standard residues; d marks the D form. Peptide text beside a SMILES is read from it. Dap = NC[C@H](N)C(=O)O
REPORTED_METRIC: selectivity for the mMC5R over the mMC3R

Sample answers from the record:
COMPOUND: N=C(N)NCCC[C@@H]1NC(=O)[C@@H](Cc2ccccc2)NC(=O)[C@H](Cc2c[nH]cn2)NC(=O)[C@@H]2CCCN2C(=O)[C@H]2CCCN2C(=O)[C@H](CN)NC(=O)[C@H](Cc2c[nH]c3ccccc23)NC1=O [Peptide 6, c[Pro-His-DPhe-Arg-Trp-Dap-DPro]] (cyclo(PH[dF]RW[Dap][dP]))
MEASURED_RESULT: > 100 fold
--
COMPOUND: C[C@@H]1NC(=O)[C@H](CN)NC(=O)[C@H](Cc2c[nH]c3ccccc23)NC(=O)[C@H](CCCNC(=N)N)NC(=O)[C@@H](Cc2ccccc2)NC(=O)[C@@H]2CCCN2C(=O)[C@H]2CCCN2C1=O [Peptide 12, c[Pro-DPhe-Arg-Trp-Dap-Ala-DPro]] (cyclo(P[dF]RW[Dap]A[dP]))
MEASURED_RESULT: > 1000 fold
--
COMPOUND: C[C@@H]1NC(=O)[C@H](CC(N)=O)NC(=O)[C@H](Cc2c[nH]c3ccccc23)NC(=O)[C@H](CCCNC(=N)N)NC(=O)[C@@H](Cc2ccccc2)NC(=O)[C@@H]2CCCN2C(=O)[C@H]2CCCN2C(=O)[C@H](Cc2ccccc2)NC1=O [Peptide 8, c[Pro-DPhe-Arg-Trp-Asn-Ala-Phe-DPro]] (cyclo(P[dF]RWNAF[dP]))
MEASURED_RESULT: > 1000 fold

// for each compound below, give its selectivity for the mMC5R over the mMC3R
1. C[C@@H]1NC(=O)[C@H](CC(N)=O)NC(=O)[C@H](Cc2c[nH]c3ccccc23)NC(=O)[C@H](CCCNC(=N)N)NC(=O)[C@@H](Cc2ccccc2)NC(=O)[C@@H]2CCCN2C(=O)[C@H]2CCCN2C1=O [Peptide 9, c[Pro-DPhe-Arg-Trp-Asn-Ala-DPro]] (cyclo(P[dF]RWNA[dP]))
2. C[C@@H]1NC(=O)[C@H](CN)NC(=O)[C@H](Cc2c[nH]c3ccccc23)NC(=O)[C@H](CCCNC(=N)N)NC(=O)[C@@H](Cc2ccccc2)NC(=O)[C@H](Cc2c[nH]cn2)NC(=O)[C@@H]2CCCN2C(=O)[C@H]2CCCN2C1=O [Peptide 5, c[Pro-His-DPhe-Arg-Trp-Dap-Ala-DPro]] (cyclo(H[dF]RW[Dap]A[dP]P))

1. > 1000 fold
2. > 100 fold

* * *

Target: mMC1R (Mus musculus, UniProt Q01727)
Sequence (Q01727 whole entry): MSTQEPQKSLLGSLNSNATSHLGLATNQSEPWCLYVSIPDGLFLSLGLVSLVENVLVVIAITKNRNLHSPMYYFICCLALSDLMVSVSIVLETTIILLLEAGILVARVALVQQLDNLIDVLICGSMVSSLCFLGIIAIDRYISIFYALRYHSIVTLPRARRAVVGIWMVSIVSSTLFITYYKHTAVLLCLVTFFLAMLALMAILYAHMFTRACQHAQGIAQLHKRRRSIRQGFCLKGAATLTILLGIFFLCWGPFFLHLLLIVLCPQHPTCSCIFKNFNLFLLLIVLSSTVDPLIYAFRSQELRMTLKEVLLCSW
Experiment: AlphaScreen cAMP agonist assay, HEK293 cells stably expressing mMC1R
Settings: full agonist = >90% maximal NDP-MSH stimulation
Square brackets hold non-standard residues; d marks the D form. Peptide text beside a SMILES is read from it.

COMPOUND: C[C@@H]1NC(=O)[C@H](CC(N)=O)NC(=O)[C@H](Cc2c[nH]c3ccccc23)NC(=O)[C@H](CCCNC(=N)N)NC(=O)[C@@H](Cc2ccccc2)NC(=O)[C@@H]2CCCN2C(=O)[C@H]2CCCN2C1=O [Peptide 9, c[Pro-DPhe-Arg-Trp-Asn-Ala-DPro]] (cyclo(P[dF]RWNA[dP]))
mMC1R agonist activity/efficacy in words: full mMC1R agonists
--
COMPOUND: C[C@@H]1NC(=O)[C@H](CC(N)=O)NC(=O)[C@H](Cc2c[nH]c3ccccc23)NC(=O)[C@H](CCCNC(=N)N)NC(=O)[C@@H](Cc2ccccc2)NC(=O)[C@@H]2CCCN2C(=O)[C@H]2CCCN2C(=O)[C@H](Cc2ccccc2)NC1=O [Peptide 8, c[Pro-DPhe-Arg-Trp-Asn-Ala-Phe-DPro]] (cyclo(P[dF]RWNAF[dP]))
mMC1R agonist activity/efficacy in words: full mMC1R agonists

* * *

I'd appreciate it if you could supply decreased agonist potency at mMC1R relative to 1 values for the items below.
Target: mMC1R (Mus musculus)
Assay: AlphaScreen cAMP agonist assay, HEK293 cells stably expressing mMC1R
Settings: relative to 1
Square brackets hold non-standard residues; d marks the D form. Peptide text beside a SMILES is read from it. Dap = NC[C@H](N)C(=O)O

Sample answers from the record:
COMPOUND: N=C(N)NCCC[C@@H]1NC(=O)[C@@H](Cc2ccccc2)NC(=O)[C@H](Cc2c[nH]cn2)NC(=O)[C@@H]2CCCN2C(=O)[C@H]2CCCN2C(=O)[C@H](CC(N)=O)NC(=O)[C@H](Cc2c[nH]c3ccccc23)NC1=O [Peptide 3, c[Pro-His-DPhe-Arg-Trp-Asn-DPro]] (cyclo(PH[dF]RWN[dP]))
MEASURED_RESULT: 140 fold
//
COMPOUND: C[C@@H]1NC(=O)[C@H](CC(N)=O)NC(=O)[C@H](Cc2c[nH]c3ccccc23)NC(=O)[C@H](CCCNC(=N)N)NC(=O)[C@@H](Cc2ccccc2)NC(=O)[C@H](Cc2c[nH]cn2)NC(=O)[C@@H]2CCCN2C(=O)[C@H]2CCCN2C1=O [Peptide 2, c[Pro-His-DPhe-Arg-Trp-Asn-Ala-DPro]] (cyclo(PH[dF]RWNA[dP]))
MEASURED_RESULT: 34 fold
//
COMPOUND: C[C@@H]1NC(=O)[C@H](CC(N)=O)NC(=O)[C@H](Cc2c[nH]c3ccccc23)NC(=O)[C@H](CCCNC(=N)N)NC(=O)[C@@H](Cc2ccccc2)NC(=O)[C@@H]2CCCN2C(=O)[C@H]2CCCN2C(=O)[C@H](Cc2ccccc2)NC1=O [Peptide 8, c[Pro-DPhe-Arg-Trp-Asn-Ala-Phe-DPro]] (cyclo(P[dF]RWNAF[dP]))
MEASURED_RESULT: 1140 fold

Now turn to the next compound.
Hello, please tell me recorded decreased agonist potency at mMC1R relative to 1 for this one: C[C@@H]1NC(=O)[C@H](CN)NC(=O)[C@H](Cc2c[nH]c3ccccc23)NC(=O)[C@H](CCCNC(=N)N)NC(=O)[C@@H](Cc2ccccc2)NC(=O)[C@H](Cc2c[nH]cn2)NC(=O)[C@@H]2CCCN2C(=O)[C@H]2CCCN2C(=O)[C@H](Cc2ccccc2)NC1=O [Peptide 4, c[Pro-His-DPhe-Arg-Trp-Dap-Ala-Phe-DPro]] (cyclo(PH[dF]RW[Dap]AF[dP])) 70 fold
